# Lookup of reported DC50 keyed by entry
target: KRAS G12V (Homo sapiens, UniProt P01116, G12V); construct: SW620-KRAS (G12V)-HiBit-KI cell (Pharmaron); host or cells: SW620-KRAS (G12V)-HiBit-KI cells (HiBiT knock-in at the endogenous KRAS locus); test: KRAS G12V HiBit assay; format: cell-based; conditions: SW620-KRAS (G12V)-HiBit-KI cells, compound treatment for 24 hours, class symbols
Sequence (P01116 1-188 isoform P01116-2 G12V): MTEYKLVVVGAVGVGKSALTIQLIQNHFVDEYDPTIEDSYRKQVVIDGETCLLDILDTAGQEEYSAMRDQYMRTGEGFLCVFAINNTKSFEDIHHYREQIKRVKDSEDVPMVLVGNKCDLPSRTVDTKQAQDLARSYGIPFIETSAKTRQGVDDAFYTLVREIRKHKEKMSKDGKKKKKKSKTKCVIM

| compound | DC50 |
| --- | --- |
| CCc1c(F)ccc2cc(O)cc(-c3ncc4c(N5CCC[C@@](C)(O)C5)nc(OC[C@@]56CCCN5[C@H](COC(=O)N5CCC(CN7CCC(c8ccc9c(c8)n(C)c(=O)n9C8CCC(=O)NC8=O)CC7)C(F)(F)C5)CC6)nc4c3F)c12 (stereo partly shown) [Compound 397] | < 10 nM |
| CCc1c(F)ccc2cc(O)cc(-c3ncc4c(N5CCC[C@@](C)(O)C5)nc(OC[C@@]56CCCN5[C@H](COC(=O)N5CCC(N7CCC(Oc8ccc9c(c8)n(C)c(=O)n9C8CCC(=O)NC8=O)CC7)CC5)CC6)nc4c3F)c12 (stereo partly shown) [Compound 439] | < 10 nM |
| CCc1c(F)ccc2cc(O)cc(-c3ncc4c(N5CCC[C@@](C)(O)C5)nc(OC[C@@]56CCCN5[C@H](COc5ccc(CCN7CCC(c8ccc9c(c8)n(C)c(=O)n9C8CCC(=O)NC8=O)CC7)cc5)CC6)nc4c3F)c12 (stereo partly shown) [Compound 499] | 10 to 100 nM |
| CCc1c(F)ccc2cc(O)cc(-c3ncc4c(N5CCC[C@@](C)(O)C5)nc(OC[C@@]56CCCN5[C@H](COC(=O)N5CC(CN7CCC(c8ccc9c(c8)n(C)c(=O)n9C8CCC(=O)NC8=O)CC7)C5)CC6)nc4c3F)c12 (stereo partly shown) [Compound 394] | < 10 nM |
